Numbers sourced from paper PMC4160279.

Documented Ka,int P dimer VA387 across a set of compounds
test system: NoV VA387 P dimer; test: Direct ESI-MS assay, NoV VA387 P dimer; parameters: species or system human NoV VA387 (GII.4); details: intrinsic (per binding site) association constant; aqueous ammonium acetate (200 mM), pH 7, 25 °C
PARAMETER: Ka,int P dimer VA387

CC(=O)N[C@H]1[C@H](O[C@@H]2[C@H](O[C@]3(C(=O)O)C[C@H](O)[C@@H](NC(C)=O)[C@H]([C@H](O)[C@@H](CO)O[C@]4(C(=O)O)C[C@H](O)[C@@H](NC(C)=O)[C@H]([C@H](O)[C@@H](CO)O[C@]5(C(=O)O)C[C@H](O)[C@@H](NC(C)=O)[C@H]([C@H](O)[C@H](O)CO)O5)O4)O3)[C@@H](O)[C@H](O[C@H]3[C@H](O)[C@@H](O)C(O)O[C@@H]3CO)O[C@@H]2CO)O[C@H](CO)[C@H](O)[C@@H]1O[C@@H]1O[C@H](CO)[C@H](O)[C@H](O)[C@H]1O (stereo partly drawn) = <100 M^–1
CC(=O)NC1C(OC2C(CO)OC(OC3C(CO)OC(O)C(O)C3O)C(O)C2OC2(C(=O)O)CC(O)C(NC(C)=O)C(C(O)C(CO)OC3(C(=O)O)CC(O)C(NC(C)=O)C(C(O)C(CO)OC4(C(=O)O)CC(O)C(NC(C)=O)C(C(O)C(O)CO)O4)O3)O2)OC(CO)C(O)C1O (stereo not drawn) = <100 M^–1
CC(=O)N[C@H]1[C@H]([C@H](O)[C@H](O)CO)O[C@@](O[C@H](CO)[C@@H](O)[C@@H]2O[C@@](O[C@H]3[C@@H](O)[C@@H](CO)O[C@@H](O[C@H]4[C@H](O)[C@@H](O)C(O)O[C@@H]4CO)[C@@H]3O)(C(=O)O)C[C@H](O)[C@H]2NC(C)=O)(C(=O)O)C[C@@H]1O (stereo partly drawn) = 340 ± 60 M^–1
